Test system: Lefty1
test.protocol: Lefty1 binders on small-molecule microarrays, primary screen, biochemical, small-molecule microarray, 635/667 nm fluorescence (AID 1139)
experimental.context: small-molecule microarray binding, fluorescence 635/667; higher = more signal
The molecules listed here are annotated with their composite z-score.

Examples with their reported composite z-score follow.
The molecule listed as CCOC(=O)[C@H]1CC=C2CC1C(=O)N1CCC[C@@H]1[C@@H]2O[Si](C)(C)C(C)(C)C (some centres undefined) has a reported composite z-score of 0.449

The molecule listed as CC1CC/C=C\[C@H]2OC34C=CCN(C(C)(C)C)C(=O)[C@H]3N(CCCCCCO)C(=O)[C@@H]4C2C(=O)O1 (some centres undefined) has a reported composite z-score of -0.349

Others:
The molecule listed as `CCCCc1cn(C[C@H](Cc2ccccc2)NC(=O)N[C@H](CO)CCc2oc(C(C)=O)c(C(=O)OC)c2C(=O)OC)nn1` has a reported composite z-score of 1.16

The molecule listed as `CCCC[C@@H]1C[C@H]1[C@@H](NC(=O)c1ccco1)c1ccc(Cl)cc1` has a reported composite z-score of -0.406

====

The molecules listed here are annotated with their z-score.
test.protocol: P. aeruginosa biofilm formation inhibitors, primary screen, PAO1 strain, BacTiter-Glo luminescence, LB-PBS (AID 1144)
experimental.context: 12 h, higher = more signal
Reply: number alone, nothing else.

Examples with their reported z-score follow.
The molecule listed as `COCCOC(=O)N1C(=O)[C@@]2(c3ccccc31)[C@H](c1ccccc1OCCO)N1[C@H](c3ccccc3)[C@H](c3ccccc3)OC(=O)[C@H]1[C@@H]2C(=O)Nc1nc2ccccc2s1` has a reported z-score of -0.868

The molecule listed as CCCCCN1CC=CC23O[C@@H]4/C=C\CCCOC(=O)C4[C@H]2C(=O)N(C(CO)C(C)C)[C@@H]3C1=O (some centres not stated) has a reported z-score of -1.6

The molecule listed as `CN(C)C(=O)[C@]1(Cc2ccccc2N=[N+]=[N-])N=C(c2ccc(OCCCO)cc2)O[C@@H]1c1ccccc1` has a reported z-score of 1.77

The molecule listed as `O=C1c2ccccc2[C@@]2(Cc3ccccc3N(CC(F)(F)F)C2=O)[C@H](c2ccc(CO)cc2)N1Cc1ccccc1Cl` has a reported z-score of -0.165

The molecule listed as `CCOC(=O)C[C@H]1[C@H](OC(=O)c2cc3ccccc3oc2=O)[C@@H](NC(=O)Cc2ccc(OC)cc2)c2cc(OCCCO)ccc2N1C(=O)c1ccccc1` has a reported z-score of -0.797

The molecule listed as CC(CO)N1C(=O)[C@@H]2C3C(=O)OCCC/C=C\[C@H]3OC23C=CCN(c2ccc4ccccc4c2)C(=O)[C@@H]13 (some centres not stated) has a reported z-score of -1.02

Lab note: next molecule to report on.
The molecule listed as CC(C)C(CO)N1C(=O)[C@@H]2[C@H]3C(=O)OCC=C[C@H]3OC23C=CCN(C(C)C)C(=O)[C@@H]13 (some centres not stated) has a reported z-score of -0.1

====

target.of.assay: Torsin-1A (Homo sapiens) (UniProt O14656)
Sequence (O14656 whole entry, looked up): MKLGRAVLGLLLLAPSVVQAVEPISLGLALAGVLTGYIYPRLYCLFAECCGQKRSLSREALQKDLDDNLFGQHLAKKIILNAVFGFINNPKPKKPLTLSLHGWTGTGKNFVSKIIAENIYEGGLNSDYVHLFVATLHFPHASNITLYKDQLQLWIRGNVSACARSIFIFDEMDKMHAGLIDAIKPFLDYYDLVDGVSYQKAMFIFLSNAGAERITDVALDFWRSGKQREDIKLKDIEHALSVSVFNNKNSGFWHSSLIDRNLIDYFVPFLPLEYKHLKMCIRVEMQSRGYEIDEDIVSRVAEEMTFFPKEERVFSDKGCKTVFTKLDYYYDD
test.protocol: small-molecule binders of mutant TOR1A in lysate, primary screen, cell lysate, small-molecule microarray, COS7 lysate, 635/667 nm fluorescence (AID 1150);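 also: score pools 667 nm emission and signal to noise measuring lysate protein binding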
experimental.context: COS7 hTOR1A mutant lysate, 635 nm fluorescence, higher = more signal
The molecules listed here are annotated with their composite z-score.
Reply: number alone, nothing else.

Examples with their reported composite z-score follow.
The molecule listed as `O=C(NCC(F)(F)F)[C@@H]1c2ccccc2C(=O)N(C2CCCCC2)[C@H]1c1ccc(CO)cc1` has a reported composite z-score of -0.287

The molecule listed as CC(C)c1ccc(NN2C(C(O)c3cc(C(F)(F)F)cc(C(F)(F)F)c3)C=CC3C(=O)N(c4ccccc4)C(=O)C32)cc1 (stereo unspecified) has a reported composite z-score of 0.843

Others:
The molecule listed as `COC(=O)c1c(CC[C@@H](CO)NC(=O)N2CCC[C@H]2Cn2cc(-c3ccccn3)nn2)oc(C(C)=O)c1C(=O)OC` has a reported composite z-score of 1.2

The molecule listed as `O=C1c2ccccc2[C@](Cc2ccccc2I)(C(=O)NC2CC2)[C@H](c2ccc(CO)cc2)N1C1CCCCC1` has a reported composite z-score of 0.68

The molecule listed as `COCCOC(=O)N1C(=O)[C@@]2(c3cc(C#CC4=CCCCC4)ccc31)[C@H](C(=O)Nc1nc3ccccc3s1)[C@H]1C(=O)O[C@H](c3ccccc3)[C@H](c3ccccc3)N1[C@@H]2c1ccccc1OCCO` has a reported composite z-score of 0.956

The molecule listed as `COCCOC(=O)N1C(=O)[C@@]2(c3cc(C#CCNC(N)=O)ccc31)[C@H](C(=O)NC[C@H](O)c1ccccc1)[C@H]1C(=O)O[C@H](c3ccccc3)[C@H](c3ccccc3)N1[C@@H]2c1ccccc1OCCO` has a reported composite z-score of 0.593

====

target.of.assay: E3 ubiquitin-protein ligase XIAP (Homo sapiens) (UniProt P98170)
Sequence (P98170 whole entry, looked up): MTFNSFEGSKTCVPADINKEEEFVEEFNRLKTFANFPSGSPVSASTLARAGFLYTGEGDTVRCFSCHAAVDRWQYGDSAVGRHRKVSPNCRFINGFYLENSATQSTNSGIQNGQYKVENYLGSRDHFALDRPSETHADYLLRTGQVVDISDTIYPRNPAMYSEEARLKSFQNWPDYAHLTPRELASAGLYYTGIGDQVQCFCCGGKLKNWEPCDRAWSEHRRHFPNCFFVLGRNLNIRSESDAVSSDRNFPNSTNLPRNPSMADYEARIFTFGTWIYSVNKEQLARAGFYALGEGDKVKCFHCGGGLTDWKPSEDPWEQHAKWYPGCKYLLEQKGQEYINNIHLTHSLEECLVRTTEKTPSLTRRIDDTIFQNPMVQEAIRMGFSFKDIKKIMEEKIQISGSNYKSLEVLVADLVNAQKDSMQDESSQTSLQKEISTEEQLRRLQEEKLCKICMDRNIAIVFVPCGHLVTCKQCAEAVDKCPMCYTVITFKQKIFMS
test.protocol: XIAP binders, primary screen, biophysical, small-molecule microarray, fluorescence 635 nm (AID 1181);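 also: score merges 667 nm emission and signal to noise over triplicate slides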
experimental.context: small-molecule microarray binding, higher = more signal
Output rule met for composite z-score not less than 0.1; output rule not met otherwise.

Some solved cases for reference:
(Q) Is the recorded value of composite z-score equal to or greater than 0.1 for this compound? `COc1ccc([C@H]2OC[C@@H]3CC4(CC=CC4)C(=O)N32)cc1`
(A) rule not met

(Q) Is the recorded value of composite z-score equal to or greater than 0.1 for this compound? O=C1C2C=CC(C(O)C(c3ccccc3)c3ccccc3)N(n3cnnc3)C2C(=O)N1Cc1ccccc1 (stereo not given)
(A) rule met

(Q) Is the recorded value of composite z-score equal to or greater than 0.1 for this compound? `COC(=O)[C@@]1(Cc2ccc(F)cc2)[C@@H]2[C@@H](CC(=O)[C@H]2CC(=O)C(=O)N(C)C)CN1C(=O)c1ccccc1`
(A) rule not met

(Q) Is the recorded value of composite z-score equal to or greater than 0.1 for this compound? `CC(C)(C)C(=O)N[C@@H](c1ccc(Cl)cc1)[C@]1(C)C[C@H]1C1CCCCC1`
(A) rule met

Query compound follows.
(Q) Is the recorded value of composite z-score equal to or greater than 0.1 for this compound? `CN(C)CCCNC(=O)[C@@]1(c2ccc([N+](=O)[O-])cc2)CC(=O)N(C2CCCCC2)[C@@H]1c1ccc(CO)cc1I`
(A) rule met

====

Tested on: XIP peptide (Xip251-270) binding
test.protocol: small-molecule binders of XIP peptide, primary screen, biochemical, small-molecule microarray, fluorescence 635/667 nm, 0.1 µg/mL protein (AID 1182)
experimental.context: fluorescent protein binding, 635 nm, higher = more signal, called active from +8 up or from −8 down
The compounds listed here are annotated with their composite z-score.
Reply: number alone, nothing else.

Examples with their reported composite z-score follow.
The compound listed as `COCCOC(=O)N1C(=O)[C@@]2(c3cc(C#CCCO)ccc31)[C@H](C(=O)N1CCc3cc(OC)c(OC)cc3C1)[C@H]1C(=O)O[C@H](c3ccccc3)[C@H](c3ccccc3)N1[C@@H]2c1ccc(O)cc1` has a reported composite z-score of 1.55

The compound listed as `[N-]=[N+]=NCc1ccccc1C[C@]1(C(=O)N2CCOCC2)N=C(c2ccc(OCCCO)cc2)O[C@H]1c1ccccc1N=[N+]=[N-]` has a reported composite z-score of 0.141

The compound listed as CC(C)(C)OC(=O)CC[C@]1(C(=O)NCC(O)CO)COC(c2ccc(OCCCO)cc2)=N1 (stereo not given in full) has a reported composite z-score of 0.273

The compound listed as `COCCCN1C(=O)[C@@]2(c3ccc([N+](=O)[O-])cc3)CC(=O)N(C3CCCCC3)[C@@H]2c2ccc(CO)cc21` has a reported composite z-score of 0.0996

The compound listed as O=C1NC(=O)C2C1C=CC(C(O)C(c1ccccc1)c1ccccc1)N2Nc1ccc(Cl)cc1Cl (stereo not given) has a reported composite z-score of 0.69

Others:
The compound listed as CCC(CC)C(O)C1C=CC2C(=O)N(C)C(=O)C2N1Nc1ccccc1 (stereo not given) has a reported composite z-score of 0.544

The compound listed as [N-]=[N+]=Nc1ccccc1C[C@]1(C(=O)NCC(O)CO)N=C(c2ccc(OCCCO)cc2)O[C@H]1c1ccccc1N=[N+]=[N-] (stereo not given in full) has a reported composite z-score of 0.0936

The compound listed as `C[C@]1(C(=O)NC2CC2)c2ccccc2C(=O)N(Cc2cc(C(F)(F)F)cc(C(F)(F)F)c2)[C@H]1c1ccc(CO)cc1` has a reported composite z-score of 1.56

The compound listed as `CCOC(=O)C[C@H]1[C@H](OC(=O)Cc2ccc3c(c2)OCO3)[C@@H](NC(=O)c2ccc3ccccc3c2)c2cc(OCCCO)ccc2N1C(=O)c1ccccc1` has a reported composite z-score of 0.0654

The compound listed as `CC(C)(C)OC(=O)CC[C@@]1(C(N)=O)N=C(c2ccc(OCCCO)cc2)O[C@@H]1c1ccccc1` has a reported composite z-score of 0.222

The compound listed as `COCCn1c(C(=O)N2CCCC2)cc2c1C[C@H]1CN(C(=O)c3ccccc3)[C@@](Cc3ccc(F)cc3)(C(=O)OC)[C@@H]21` has a reported composite z-score of 0.254

The compound listed as `CCCCC(=C=CC[C@@H](O)c1ccccc1OCCO)CCO` has a reported composite z-score of -0.247

The compound listed as `C=CCN1C(=O)[C@]2(O[C@H](CCO)[C@@H]([Si](C)(C)c3ccc(OC)cc3)[C@@H]2C)c2cc(N3C(=O)c4cccc5cccc3c45)ccc21` has a reported composite z-score of 0.966

The compound listed as `COc1cc2c(cc1OC)CN(C(=O)[C@H]1[C@@H]3C(=O)O[C@@H](c4ccccc4)[C@@H](c4ccccc4)N3[C@@H](c3ccc(O)cc3)[C@]13C(=O)Nc1ccc(C#CCNC(N)=O)cc13)CC2` has a reported composite z-score of -0.564

The compound listed as COc1ccc(C(O)C2C=CC3C(=O)NC(=O)C3N2Nc2ccccn2)c2ccccc12 (stereo not given) has a reported composite z-score of 0.123

The compound listed as `COc1ccc(C(=O)Nc2ccc(CN3C(=O)[C@@]4(O[C@@H](CCn5cc([C@H](O)c6ccccc6)nn5)[C@H]([Si](C)(C)c5ccc(OC)cc5)[C@H]4C)c4ccccc43)cc2)cc1` has a reported composite z-score of 0.0679
